tested on: SK-MEL-28; assay: NCI tumour cell line growth inhibition, 48 h
Calls of active or inactive are those of the source. Rule as the data show it: active = GI50 up to about 1.1 µM and inactive = higher.
assay-metric: GI50

Observe how each entry below is paired with its result.
compound	value
CC1(C)C2CCC1C(=O)[C@@]1(C=CC(=O)CC1)C2 (stereo not given in full)	43.1 µM (inactive)
Cc1c(C(=O)C/C(=N/NC(=O)c2ccccc2O)C(=O)Nc2ccccc2C(C)C)[n+]([O-])c2ccccc2[n+]1[O-]	69.7 µM (inactive)
CC1(Br)S(=O)(=O)OCCOS1(=O)=O	> 100 µM (inactive)
CC1OC(OC2C(Oc3cc(O)c4c(c3)O[C@H](c3ccc(O)cc3)CC4=O)OC(CO)C(O)C2O)C(O)C(O)C1O (stereo not given in full)	> 100 µM (inactive)
COC(=O)[C@H](Cc1ccccc1)NP(=O)(O)OCC1OC(n2cc(C)c(=O)[nH]c2=O)CC1N=[N+]=[N-] (stereo not given in full)	> 100 µM (inactive)

# input Request the reported GI50 associated with `CCN(CC)CCO[Si](OCCN(CC)CC)(OCCN(CC)CC)OCCN(CC)CC`
# output > 100 µM (inactive)

# input Value lookup for GI50; key = CCOC(=O)C1CN(C2CC2)CCC1=O (stereo not given)
# output > 100 µM (inactive)

# input Entry CC1(C)C2CCC(O)(C2)C1N (stereo not given) has what GI50?
# output > 100 µM (inactive)

# input GI50 for COC(=O)C1CC2CCC1(O[Si](C(C)C)(C(C)C)C(C)C)C(O)C2 (stereo not given) ?
# output 19.4 µM (inactive)

# input Please report the recorded GI50 for `COC(=O)N[C@@H]1C[C@H]2CC[C@]1(O[Si](C(C)C)(C(C)C)C(C)C)C(=O)C2` .
# output 14.6 µM (inactive)

---

test system: RXF 631; test: NCI tumour cell line growth inhibition, 48 h
The source made the active and inactive calls. Cut-off read from the data, not from the text of the source: active = GI50 up to about 1.1 µM and inactive = higher.
Please state which outcome applies, choosing from True for active, False for inactive

Worked examples, 8 molecules total:
molecule	cat
COC(=O)C12C3C4C1C1C2C3C41C(=O)O (stereo not given)	False
COc1ccc2c(c1)C(=O)C1CC(=O)CCC21 (stereo not given)	False
Cc1cccc(N2C(=O)C(=O)C(c3nc4ccccc4s3)C(=O)C2=O)c1C	False
COc1cc(C=O)c(-c2cc3c(cc2C=O)OCO3)c(OC)c1OC	False
C/C(CN1C(=O)c2ccccc2C1=O)=N\NS(=O)(=O)c1cccc([N+](=O)[O-])c1	False
C[C@@H]1C[C@@H]([C@H](O)CC2CC(=O)NC(=O)C2)C(=O)[C@@H](C)C1 [CYCLOHEXIMIDE]	True
O=C(O)C1C2CC3CC2CC31 (stereo not given)	False
CCOC(=O)Cc1cc(OC)c(OC)cc1/C(Cl)=C(\CO)c1ccc(OC)c(OC)c1	False

# input Hi team, can someone confirm the assay call for `Cc1nc(Nc2ccc([N+](=O)[O-])cc2)sc1C(/C=C/c1ccc(N(C)C)cc1)=N/NC(=O)c1ccccc1` ?
# output False

# input What outcome does the record of this test show for `COc1ccc(/C(C)=N/NC(N)=S)c(OC)c1` ?
# output False

---

Reported GI50 values follow for various compounds
tested on: NCI-H226; assay: NCI tumour cell line growth inhibition, 48 h
Active and inactive are the calls of the source. No stated cut-off is given here; in the data, active = GI50 up to about 1.1 µM and inactive = higher.

Known GI50 results, listed for orientation:
compound	GI50
C/C(CCn1[nH]c(=O)ccc1=O)=N\NC(=O)C(N)=O	> 100 µM (inactive)
O=c1c2cc(I)ccc2nc(-c2cccs2)n1O	52.6 µM (inactive)

# input Find the measured GI50: item COc1ccc(/C=N\N2CC(=O)N3C4C=CC(CC4)N3C2=O)cc1 (stereo unspecified) , target or system NCI-H226.
# output > 100 µM (inactive)

# input Find the measured GI50: item `CSc1cc(Cl)c(C)cc1S(=O)(=O)NC(=O)NNc1ccccn1` , target or system NCI-H226.
# output > 100 µM (inactive)

# input Request body: readout GI50, system NCI-H226, query `Cn1c(=O)c(Cl)c(N=[N+]=[N-])c2ccccc21` . Return the value.
# output 39.8 µM (inactive)

# input Look up GI50 with NCI-H226 for this compound: `C=CC(=O)N1C/C(=C\c2ccc(OC)cc2)C(=O)/C(=C/c2ccc(OC)cc2)C1`
# output 2 µM (inactive)

src = ChEMBL document CHEMBL1201862
